pIC50 overview
- assay_target: HuNV GGII.4 Norovirus protease (Norovirus GII.4 (human norovirus genogroup II genotype 4))
- assay_overview: Norovirus protease FRET assay (HuNV GGII.4)
- Type: biochemical
- test_parameters: Table C; FRET protease assay; read-out: HuNV GGII.4 IC50
pIC50: −log10 of the molar value.
readout_label: pIC50

>>> recorded_value("CN1C(=O)CCC(NC(=O)[C@H](CC2CCCCC2)NC(=O)OCc2cccc(Cl)c2)C1O (stereo partly shown)")
3.90
>>> recorded_value("O=C[C@H](CCC(=O)N1CCOCc2ccccc21)NC(=O)[C@H](CC1CCCCC1)NC(=O)OCc1cccc(Cl)c1")
4.87
>>> recorded_value("CN(CCc1ccccc1)C(=O)CC[C@H](NC(=O)[C@H](CC1CCCCC1)NC(=O)OCc1cccc(Cl)c1)C(O)S(=O)(=O)O (stereo in doubt)")
4.92
>>> recorded_value("CCOP(=O)(OCC)C(O)[C@H](CCC(=O)N(CC)CCc1ccccc1)NC(=O)[C@H](CC1CCCCC1)NC(=O)OCc1cccc(Cl)c1 (stereo partly shown)")
4.02
>>> recorded_value("CCCCCN(C)C(=O)CC[C@@H](C=O)NC(=O)[C@H](CC1CCCCC1)NC(=O)OCc1cccc(Cl)c1")
4.95
>>> recorded_value("CCOCCN(C)C(=O)CC[C@@H](C=O)NC(=O)[C@H](CC1CCCCC1)NC(=O)OCc1cccc(Cl)c1")
4.77
>>> recorded_value("CCS(=O)(=O)NCCN(C)C(=O)CC[C@@H](C=O)NC(=O)[C@H](CC1CCCCC1)NC(=O)OCc1cccc(Cl)c1 (stereo in doubt)")
4.51
>>> recorded_value("CCOCCOCCN(C)C(=O)CC[C@H](NC(=O)C(CC1CCCCC1)NC(=O)OCc1cccc(Cl)c1)C(O)P(=O)(OCC)OCC (stereo in doubt)")
3.94
>>> recorded_value("CCOP(=O)(OCC)C(O)[C@H](CCC(=O)N(C)CCc1ccccc1)NC(=O)[C@H](CC1CCCCC1)NC(=O)OCc1cccc(Cl)c1 (stereo partly shown)")
3.86
>>> recorded_value("CN(CCc1ccncc1)C(=O)CC[C@@H](C=O)NC(=O)[C@H](CC1CCCCC1)NC(=O)OCc1cccc(Cl)c1")
4.78
>>> recorded_value("CN(Cc1ccccc1)C(=O)CC[C@@H](C=O)NC(=O)[C@H](CC1CCCCC1)NC(=O)OCc1cccc(Cl)c1")
4.84

* * *

- assay_target: HuNV GGII.4 Norovirus protease (Norovirus GII.4 (human norovirus genogroup II genotype 4), UniProt P54634)
- Sequence (P54634 1009-1189): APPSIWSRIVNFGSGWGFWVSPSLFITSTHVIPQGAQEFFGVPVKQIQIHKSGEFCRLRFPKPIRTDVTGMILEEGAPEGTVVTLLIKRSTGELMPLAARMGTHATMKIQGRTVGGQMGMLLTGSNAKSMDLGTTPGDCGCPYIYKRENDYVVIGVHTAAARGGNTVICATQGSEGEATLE
- assay_overview: Norovirus protease FRET assay (HuNV GGII.4)
- Format: biochemical
- test_parameters: Table D; FRET protease assay; read-out: HuNV GGII.4 IC50
pIC50: −log10 of the molar value.
readout_label: pIC50

>>> recorded_value("CON(C)C(=O)C1CC(C(=O)N(C)C)CCCCCC(Cc2ccccc2)OC(=O)N[C@@H](CC(C)C)C(=O)N1 (stereo in doubt)")
3.98
>>> recorded_value("CCCCCCCC1CCC/C=C/CC(C(=O)N(C)C)C[C@@H](C=O)NC(=O)C(CC(C)C)NC1=O (stereo partly shown)")
3.83
>>> recorded_value("CCOP(=O)(OCC)C(O)[C@@H]1CC(C(=O)NC)C/C=C/CCC(Cc2ccccc2)OC(=O)N[C@@H](CC(C)C)C(=O)N1 (stereo partly shown)")
4.24
